- Experimental System: L1196M EML4-ALK (NIH-3T3 EML4-ALK v1 L1196M cells) (Homo sapiens, UniProt Q9UM73, L1196M)
- Construct: expressed in transfected cells; the other entry of the earlier key: EML4 (Q9HC35, Echinoderm microtubule-associated protein-like 4)
- Test Name: Cellular phospho-ALK (Tyr1604) ELISA assay for L1196M EML4-ALK
- Assay type: cell-based
- Experimental Context: NIH-3T3 EML4-ALK v1 L1196M cells, 1 hour, phospho-ALK (Tyr1604); read-out: ELISA assay for L1196M EML4-ALK (IC50)
Let's look at some molecules and their measured IC50.
# output: bare number, implied unit nM

CC1Oc2cc(F)ccc2C(=O)N(C)Cc2nn(C)c(C#N)c2-c2cnc(N)c1c2 (single isomer, unassigned) [Example 76]	109
CN1Cc2c(c(C#N)nn2C)-c2cnc(N)c(n2)OC(CF)c2ccccc2C1=O (single isomer, unassigned)	65

Exam item: Given the entry CC1Oc2nc(cnc2N)-c2c(C#N)nn3c2C(CC3)N(C)C(=O)c2ccc(F)cc21 (stereo not drawn) [Example 75] , report its measured IC50.
Marked response: 7.06

Exam item: # input molecule: `CCn1ncc2c1-c1cnc(N)c(n1)O[C@H](C)c1cc(F)ccc1C(=O)N(C)C2` ; wanted: its IC50
Marked response: 80.8

Exam item: Requested field: IC50. Item: `C[C@H]1Oc2nc(cnc2N)-c2c(C#N)nn(C)c2CN(C)C(=O)c2ccc(F)cc21`
Marked response: 8.18

Exam item: Field request: IC50 | item: `C[C@H]1Oc2cc(cnc2N)-c2cc(S(C)(=O)=O)ccc2CN(C)Cc2ccc(F)cc21`
Marked response: 14.3
